Data origin: patent US8962244B2

System: MEX-3
Test: Fluorescence polarization screening of MEX-3 binding to fluorescein-labeled SEQ 14 RNA
Settings: 192 μM test compound; 80 nM MBP-MEX-3, no zinc acetate; lowest score = greatest inhibition
parameter: MEX-3 score

{"columns": ["compound", "recordedValue"],
 "data": [
  ["O=C(O)c1ccc(NC(=S)NC(=O)c2ccc(I)cc2)cc1", 0.1624],
  ["CCOC(=O)c1sc(NC(=S)NC(=O)c2cc3ccccc3o2)c(C(=O)OCC)c1C", 0.2585],
  ["Cc1ccc(C(CC(=O)N2CCCC2)c2ccco2)cc1 (stereo not drawn)", 0.2093],
  ["COc1ccc(CCNC(=O)c2ccc(C(=O)NCCc3ccc(OC)c(OC)c3)nc2)cc1OC", 0.0674],
  ["O=[N+]([O-])c1cccc(/C(=N\\O)Nc2nnc(-c3cccnc3)s2)c1", 0.124],
  ["CCOc1ccc(NS(=O)(=O)c2ccc(C)c(C(N)=O)c2)cc1", 0.08965]
]}
